Target: hSSTR4 (Homo sapiens, UniProt P31391)
Construct: expressed in transfected cells
Sequence (P31391 whole entry): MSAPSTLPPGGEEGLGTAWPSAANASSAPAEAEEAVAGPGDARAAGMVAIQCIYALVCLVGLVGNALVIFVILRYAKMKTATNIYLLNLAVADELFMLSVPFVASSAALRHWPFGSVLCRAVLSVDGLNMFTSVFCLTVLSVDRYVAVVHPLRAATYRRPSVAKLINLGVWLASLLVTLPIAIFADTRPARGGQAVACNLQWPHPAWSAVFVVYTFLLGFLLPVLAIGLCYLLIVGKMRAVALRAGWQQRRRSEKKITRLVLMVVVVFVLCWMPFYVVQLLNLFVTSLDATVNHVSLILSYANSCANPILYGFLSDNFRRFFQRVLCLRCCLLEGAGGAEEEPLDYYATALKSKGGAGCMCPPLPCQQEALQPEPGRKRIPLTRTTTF
Test: inhibition of cAMP via hSSTR4
Type: cell-based
Settings: selectivity for inhibition of cAMP via hSSTR2 vs. hSSTR4
Observed property: hSST4/hSST2 (ratio)

Some molecules with known hSST4/hSST2 (ratio) results, for comparison:
Molecule	Test system	hSST4/hSST2 (ratio)
COc1ccc2[nH]c(-c3c(OC)ncc(-c4cc(C)cc(F)c4)c3N3CCC(N)CC3)nc2c1	hSSTR4 (Homo sapiens, UniProt P31391)	a (above 50)
Cc1cc(F)cc(-c2cnc(N)c(-c3nc4cc(F)c(F)cc4[nH]3)c2N2CCC(N)CC2)c1	hSSTR4 (Homo sapiens, UniProt P31391)	b (between 15 and 50)
Cc1cc(F)cc(-c2cnc(N)c(-c3nc4cccc(F)c4[nH]3)c2N2CCC(N)CC2)c1	hSSTR4 (Homo sapiens, UniProt P31391)	c (between 2.5 and 15)
COc1cc(F)c2nc(-c3c(N)ncc(-c4cc(C)cc(F)c4)c3N3CCC(N)CC3)[nH]c2c1	hSSTR4 (Homo sapiens, UniProt P31391)	b (between 15 and 50)
COCCNc1ncc(-c2cc(C)cc(F)c2)c(N2CCC(N)CC2)c1-c1nc2c(F)cc(F)cc2[nH]1	hSSTR4 (Homo sapiens, UniProt P31391)	a (above 50)

Cc1cc(F)cc(-c2cnc(N)c(-c3nc4cc(C#N)ccc4[nH]3)c2N2CCC(N)CC2)c1 yielded hSST4/hSST2 (ratio) of a (above 50)

CNc1ncc(-c2cc(C)cc(F)c2)c(N2CCC(N)CC2)c1-c1nc2cc(F)cc(F)c2[nH]1 yielded hSST4/hSST2 (ratio) of a (above 50)

COc1ncc(-c2cc(C)cc(F)c2)c(N2CCC(N)CC2)c1-c1nc2cc(Cl)ccc2[nH]1 yielded hSST4/hSST2 (ratio) of a (above 50)

Cc1cc(F)cc(-c2cnc(N3CCOCC3)c(-c3nc4cc(F)cc(F)c4[nH]3)c2N2CCC(N)CC2)c1 yielded hSST4/hSST2 (ratio) of a (above 50)

Cc1cc(F)cc(-c2cncc(-c3nc4cc(C#N)ccc4[nH]3)c2N2CCC(N)CC2)c1 [R^1=H, R^5=H, R^6=5-CN, R^7=H, reference compound] yielded hSST4/hSST2 (ratio) of c (between 2.5 and 15)

Cc1cc(F)cc(-c2cnc(N)c(-c3nc4cc(OC(F)(F)F)ccc4[nH]3)c2N2CCC(N)CC2)c1 yielded hSST4/hSST2 (ratio) of a (above 50)

COc1cc(F)cc2[nH]c(-c3c(N)ncc(-c4cc(C)cc(F)c4)c3N3CCC(N)CC3)nc12 yielded hSST4/hSST2 (ratio) of c (between 2.5 and 15)
